We begin with a simple list: items and their reported koff.
# Tested On: T1, human mesothelin (human, UniProt Q13421 296-580, limits assumed)
# T1 construct: also called Human MSLN
# T1 sequence (Q13421 other isoform, or with tags, fused parts or gaps limits assumed): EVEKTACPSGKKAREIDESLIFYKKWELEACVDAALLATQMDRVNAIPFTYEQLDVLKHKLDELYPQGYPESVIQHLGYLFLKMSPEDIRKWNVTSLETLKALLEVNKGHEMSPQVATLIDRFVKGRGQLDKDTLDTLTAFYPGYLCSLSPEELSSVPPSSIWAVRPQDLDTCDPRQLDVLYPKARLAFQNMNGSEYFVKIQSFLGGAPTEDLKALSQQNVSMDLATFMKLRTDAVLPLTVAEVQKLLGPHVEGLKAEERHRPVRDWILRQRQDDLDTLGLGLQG
# Assay Protocol: SPR

Binder	Censoring Operator	koff [s⁻¹]
HuAM1 (antibody, V domains shown, fully human antibody) VH: EVQLVQSGAEVKKPGASVKVSCKASGDTFKRYYVQWVRQAPGQGLEWMGIINPSGVSTTYAQKFQGRVTMTRDTSTSTVYMELSSLRSEDTAVYYCAESRGSGYNYFAMDVWGQGTLVTVSS VL: SYELTQPPSVSVSPGQTASITCSGDKLGDKYASWYQQKPGQSPVLVIYQDNRRPSGIPERFSGSNSGNTATLTISGTQAMDEADYYCQAWDSDTYVFGTGTKVTVL	=	5.1e-05
HuAM7 (antibody, V domains shown, fully human antibody) VH: EVQLVQSGAEVKKPGASVKVSCKASGDTFNRYYVHWVRQAPGQGLEWMGIINPSGVSTTYAQKFQGRVTMTRDTSTSTVYMELSSLRSEDTAVYYCAEVRGSGYNYFGMDVWGQGTLVTVSS VL: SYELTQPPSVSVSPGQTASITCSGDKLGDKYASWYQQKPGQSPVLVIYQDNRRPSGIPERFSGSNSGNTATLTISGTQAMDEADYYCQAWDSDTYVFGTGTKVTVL	≤	1e-05
